List of ADCC cytotoxic activity (51Cr release) on T24 values.
- Experimental system: T1, CAPRIN-1 protein expressed on the membrane surface of human cancer cells (human, UniProt Q14444 2-709)
- T1 sequence (looked up): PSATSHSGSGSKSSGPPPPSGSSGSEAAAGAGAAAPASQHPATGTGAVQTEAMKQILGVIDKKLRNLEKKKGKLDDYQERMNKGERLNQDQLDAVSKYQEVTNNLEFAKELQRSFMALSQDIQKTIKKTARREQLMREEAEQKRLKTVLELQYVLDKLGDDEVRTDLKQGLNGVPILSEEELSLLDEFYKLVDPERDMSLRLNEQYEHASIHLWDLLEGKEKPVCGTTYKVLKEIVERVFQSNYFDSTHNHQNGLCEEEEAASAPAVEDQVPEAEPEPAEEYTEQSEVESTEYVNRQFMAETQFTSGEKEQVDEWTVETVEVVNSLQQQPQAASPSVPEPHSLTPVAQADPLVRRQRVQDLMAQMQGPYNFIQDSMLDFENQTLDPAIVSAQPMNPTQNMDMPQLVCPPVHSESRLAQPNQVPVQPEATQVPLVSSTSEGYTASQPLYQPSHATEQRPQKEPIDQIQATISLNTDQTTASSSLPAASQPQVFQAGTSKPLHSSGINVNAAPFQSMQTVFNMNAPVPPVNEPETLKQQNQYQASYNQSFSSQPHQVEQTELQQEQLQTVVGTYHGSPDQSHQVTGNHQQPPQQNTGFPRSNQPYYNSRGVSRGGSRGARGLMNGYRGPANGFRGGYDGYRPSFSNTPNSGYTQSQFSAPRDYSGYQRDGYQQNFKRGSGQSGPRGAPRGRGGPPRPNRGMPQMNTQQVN
- Assay comment: cell-based or functional assay

Look up and report measured ADCC cytotoxic activity (51Cr release) on T24 for this entry: humanized antibody #10 (antibody, V domains shown) VH: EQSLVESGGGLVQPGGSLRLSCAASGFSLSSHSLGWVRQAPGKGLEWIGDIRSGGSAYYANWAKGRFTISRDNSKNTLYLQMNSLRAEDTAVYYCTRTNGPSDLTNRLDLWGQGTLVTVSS VL: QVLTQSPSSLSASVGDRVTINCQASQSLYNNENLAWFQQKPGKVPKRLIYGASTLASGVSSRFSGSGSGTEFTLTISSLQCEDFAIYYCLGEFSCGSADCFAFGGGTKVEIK
≥ 36%

Look up and report measured ADCC cytotoxic activity (51Cr release) on T24 for this entry: human-rabbit chimeric anti-CAPRIN-1 antibody (antibody, V domains shown) VH: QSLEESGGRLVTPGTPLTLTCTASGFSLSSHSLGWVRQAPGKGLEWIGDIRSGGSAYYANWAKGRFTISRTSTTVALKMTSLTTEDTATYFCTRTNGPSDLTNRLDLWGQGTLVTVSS VL: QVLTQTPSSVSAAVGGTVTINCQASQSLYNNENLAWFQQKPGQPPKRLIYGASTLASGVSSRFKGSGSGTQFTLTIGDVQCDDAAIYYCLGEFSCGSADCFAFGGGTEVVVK
≥ 30%

Look up and report measured ADCC cytotoxic activity (51Cr release) on T24 for this entry: humanized antibody #5 (antibody, V domains shown) VH: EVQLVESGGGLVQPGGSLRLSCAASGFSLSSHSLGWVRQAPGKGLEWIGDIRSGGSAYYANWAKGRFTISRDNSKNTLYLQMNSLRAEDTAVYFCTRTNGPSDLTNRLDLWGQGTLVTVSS VL: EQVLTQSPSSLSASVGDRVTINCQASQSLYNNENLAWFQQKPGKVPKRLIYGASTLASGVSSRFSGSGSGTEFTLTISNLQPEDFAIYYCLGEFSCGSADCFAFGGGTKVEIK
≥ 33%
